// data source = patent US8765746B2

Target: PI3Kalpha (Homo sapiens)
Construct: His (N); host or cells: SF9 insect cells (baculovirus)
Sequence (P42336 whole entry): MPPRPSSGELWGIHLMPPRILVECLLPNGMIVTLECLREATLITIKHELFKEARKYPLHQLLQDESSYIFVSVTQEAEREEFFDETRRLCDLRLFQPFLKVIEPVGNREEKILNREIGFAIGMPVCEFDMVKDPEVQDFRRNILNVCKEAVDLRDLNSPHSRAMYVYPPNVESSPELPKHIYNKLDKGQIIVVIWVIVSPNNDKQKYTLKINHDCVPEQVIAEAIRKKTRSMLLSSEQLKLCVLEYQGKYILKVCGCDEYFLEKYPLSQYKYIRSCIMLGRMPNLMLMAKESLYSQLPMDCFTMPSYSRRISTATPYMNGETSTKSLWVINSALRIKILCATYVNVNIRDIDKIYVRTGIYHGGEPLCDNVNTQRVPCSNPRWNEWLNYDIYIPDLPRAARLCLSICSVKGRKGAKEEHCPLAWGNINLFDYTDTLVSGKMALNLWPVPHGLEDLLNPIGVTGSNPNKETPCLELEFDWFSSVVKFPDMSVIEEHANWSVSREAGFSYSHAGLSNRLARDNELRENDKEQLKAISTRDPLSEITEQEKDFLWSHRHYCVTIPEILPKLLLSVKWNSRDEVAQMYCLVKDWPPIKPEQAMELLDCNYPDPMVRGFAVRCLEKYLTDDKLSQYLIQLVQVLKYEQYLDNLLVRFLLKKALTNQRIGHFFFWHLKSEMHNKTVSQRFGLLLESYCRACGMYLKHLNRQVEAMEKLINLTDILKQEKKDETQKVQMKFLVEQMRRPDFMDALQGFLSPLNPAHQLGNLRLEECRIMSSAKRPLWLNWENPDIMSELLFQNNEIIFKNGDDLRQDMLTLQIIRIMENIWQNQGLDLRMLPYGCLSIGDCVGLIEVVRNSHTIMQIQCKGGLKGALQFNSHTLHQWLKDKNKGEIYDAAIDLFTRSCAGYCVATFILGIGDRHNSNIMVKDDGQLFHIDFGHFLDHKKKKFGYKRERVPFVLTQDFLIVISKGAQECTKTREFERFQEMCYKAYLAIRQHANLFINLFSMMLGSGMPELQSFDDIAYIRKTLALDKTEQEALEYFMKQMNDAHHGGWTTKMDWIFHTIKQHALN
Sequence (P27986 whole entry partner): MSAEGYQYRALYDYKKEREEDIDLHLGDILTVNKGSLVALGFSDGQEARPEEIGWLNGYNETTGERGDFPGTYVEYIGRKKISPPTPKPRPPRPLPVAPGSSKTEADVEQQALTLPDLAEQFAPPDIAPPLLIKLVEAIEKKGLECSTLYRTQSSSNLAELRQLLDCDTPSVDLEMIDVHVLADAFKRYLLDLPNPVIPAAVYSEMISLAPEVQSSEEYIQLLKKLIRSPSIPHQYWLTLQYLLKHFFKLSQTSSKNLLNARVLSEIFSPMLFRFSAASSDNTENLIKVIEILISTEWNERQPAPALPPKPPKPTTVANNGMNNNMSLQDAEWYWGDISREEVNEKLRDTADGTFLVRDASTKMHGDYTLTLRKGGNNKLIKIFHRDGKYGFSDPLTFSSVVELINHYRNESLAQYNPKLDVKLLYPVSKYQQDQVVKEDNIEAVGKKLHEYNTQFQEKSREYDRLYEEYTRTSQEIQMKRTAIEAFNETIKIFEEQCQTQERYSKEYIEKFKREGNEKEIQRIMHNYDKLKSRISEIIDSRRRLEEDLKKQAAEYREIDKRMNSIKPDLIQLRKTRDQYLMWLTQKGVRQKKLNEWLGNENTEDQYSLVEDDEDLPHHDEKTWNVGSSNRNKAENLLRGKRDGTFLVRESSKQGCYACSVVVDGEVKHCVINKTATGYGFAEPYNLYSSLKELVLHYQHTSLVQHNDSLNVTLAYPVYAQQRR
Test: Human PI3Kα enzyme assay (HTRF)
Type: biochemical
Conditions: read-out: PI3Kalpha % inh
Decision: inhibition at 1.11 µM >= 10% yields T, all other cases yield F.

| molecule | qualitativeLabel |
| --- | --- |
| N#Cc1c(N2CCOCC2)sc2c1C(c1ccc(Cl)c(Cl)c1)NC2=O (centres unmarked) | T |
| CNC(=O)[C@@H]1NC(=O)c2sc(-c3ccncc3)cc2[C@H]1c1ccc(Cl)cc1 | T |
| NC(=O)CN1CC(c2ccc(Cl)cc2)c2cc(N3CCOCC3)sc2C1=O (centres unmarked) | F |
| CC(=O)Nc1cc(-c2cc3c(s2)C(=O)NCCC3c2ccc(Cl)cc2)ccn1 (centres unmarked) | T |
| CC1(C)CNC(=O)c2sc(-c3ccncc3)cc2C1c1ccc(Cl)cc1 (centres unmarked) | F |
| O=C1CC(c2ccc(Cl)cc2)c2cc(-c3ccncc3)sc2N1 (centres unmarked) | F |
| COCCNC(=O)[C@@H]1NC(=O)c2sc(N3CCOCC3)cc2[C@H]1c1ccc(Cl)cc1 | T |
| O=C1CCCC(c2ccc(Cl)cc2)c2cc(-c3ccncc3)sc21 (centres unmarked) | F |
| O=C1CC(c2ccc3ccccc3c2)c2cc(N3CCOCC3)sc21 (centres unmarked) | T |
| C=CCC1(C(=O)OC)NC(=O)c2sc(N3CCOCC3)cc2C1c1ccc(Cl)c(Cl)c1 (centres unmarked) | T |
| O=C1N[C@@H](CO)[C@H](c2ccc(Cl)cc2)c2cc(N3CCOCC3)sc21 | T |
| CC1=CC(=O)Nc2sc(-c3ccncc3)cc2C1(C)c1ccc(Cl)cc1 (centres unmarked) | T |
| C=CCC1(C(=O)O)NC(=O)c2sc(N3CCOCC3)cc2C1c1ccc(Cl)c(Cl)c1 (centres unmarked) | T |
| Cc1nn2ccccc2c1-c1nc2c(s1)NC(=O)CCC2c1ccc(Cl)cc1 (centres unmarked) | T |
| O=S1(=O)NCC(O)(c2ccc(Cl)cc2)c2cc(-c3ccncc3)sc21 (single isomer, unassigned) [Compound 9] | F |
| O=C1NCCC(c2ccc(Cl)cc2)c2cc(N3CCOCC3)sc21 (centres unmarked) | T |
| CN1CCC(c2ccc(Cl)cc2)c2cc(N3CCOCC3)sc2C1=O (centres unmarked) | F |

----------
Target: PI3Kdelta (Homo sapiens)
Construct: His (N); host or cells: SF9 insect cells (baculovirus)
Sequence (O00329 whole entry): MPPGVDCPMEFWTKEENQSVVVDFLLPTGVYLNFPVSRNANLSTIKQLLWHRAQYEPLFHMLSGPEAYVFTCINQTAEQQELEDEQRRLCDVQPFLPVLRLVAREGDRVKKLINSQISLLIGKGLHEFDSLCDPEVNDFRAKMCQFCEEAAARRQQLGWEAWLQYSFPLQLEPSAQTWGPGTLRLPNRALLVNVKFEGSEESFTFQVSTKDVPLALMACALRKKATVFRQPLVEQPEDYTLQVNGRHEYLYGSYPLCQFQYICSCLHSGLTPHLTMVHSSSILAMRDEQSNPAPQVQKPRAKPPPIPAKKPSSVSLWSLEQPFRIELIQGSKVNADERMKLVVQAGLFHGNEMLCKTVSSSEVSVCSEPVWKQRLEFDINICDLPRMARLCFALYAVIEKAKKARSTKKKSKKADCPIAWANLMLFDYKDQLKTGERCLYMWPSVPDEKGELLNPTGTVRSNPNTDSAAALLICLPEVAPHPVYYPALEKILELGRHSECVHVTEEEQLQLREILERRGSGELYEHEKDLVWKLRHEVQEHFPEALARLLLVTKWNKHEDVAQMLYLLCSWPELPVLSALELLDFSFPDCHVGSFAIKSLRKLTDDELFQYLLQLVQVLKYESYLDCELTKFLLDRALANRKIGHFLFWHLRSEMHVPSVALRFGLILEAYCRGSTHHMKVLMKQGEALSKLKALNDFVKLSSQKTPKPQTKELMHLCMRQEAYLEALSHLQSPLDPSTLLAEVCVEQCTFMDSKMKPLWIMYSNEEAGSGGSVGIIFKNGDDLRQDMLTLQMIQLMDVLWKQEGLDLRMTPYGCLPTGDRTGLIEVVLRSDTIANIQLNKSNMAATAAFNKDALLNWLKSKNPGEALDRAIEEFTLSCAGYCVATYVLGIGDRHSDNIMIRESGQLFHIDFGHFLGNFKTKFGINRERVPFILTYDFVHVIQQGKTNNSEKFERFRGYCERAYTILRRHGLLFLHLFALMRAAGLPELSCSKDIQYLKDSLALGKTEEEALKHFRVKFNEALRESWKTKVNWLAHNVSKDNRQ
Sequence (P27986 whole entry partner): as the sequence (P27986 whole entry partner) above
Experiment: Human PI3K delta enzyme assay (HTRF, as for PI3K alpha)
Type: biochemical
Details: read-out: PI3Kdelta % inh
The following compounds are shown together with reported inhibition at 1.11 µM values.
readout: inhibition at 1.11 µM (%)

| compound | unitInfo | recordedValue |
| --- | --- | --- |
| N#Cc1c(N2CCOCC2)sc2c1C(c1c(F)cc(Cl)cc1F)CCNC2=O (stereo not drawn) [Compound 155] | % | 104 |
| O=C1CCCC(c2ccc(Cl)cc2)c2cc(-c3ccncc3)sc21 (stereo not drawn) [Compound 19] | % | 43.1 |
| O=C1NCC(c2ccc(Cl)cc2)c2cc(N3CCOCC3)sc21 (stereo not drawn) [Compound 128] | % | 87 |
| O=C1NCCC(c2ccc(Cl)cc2)c2cc(N3CCOCC3)sc21 (stereo not drawn) [Compound 148] | % | 98.2 |
| N#Cc1c(N2CCOCC2)sc2c1C(c1ccc3ccccc3c1)NC2=O (stereo not drawn) [Compound 169] | % | 98.2 |
| NC(=O)[C@@H]1NC(=O)c2sc(N3CCOCC3)cc2[C@H]1c1ccc(Cl)c(Cl)c1 (relative stereo) [Compound 146] | % | 99.7 |
| O=C1CCC(c2ccc(Cl)cc2)c2cc(-c3ccncc3)sc21 (racemic) [Compound 13] | % | 55.7 |
| O=S1(=O)NC=C(c2ccc(Cl)cc2)c2cc(-c3ccncc3)sc21 [Compound 27] | % | 46 |
| N#Cc1c(N2CCOCC2)sc2c1C(c1ccc(Cl)cc1)NC2=O (stereo not drawn) [Compound 134] | % | 76.5 |
| CNC(=O)[C@@H]1NC(=O)c2sc(N3CCOCC3)cc2[C@H]1c1ccc(Cl)cc1 [Compound 123] | % | 49.6 |
| O/N=C1/CCC(c2ccc(Cl)cc2)c2cc(-c3ccncc3)sc21 (stereo not drawn) [Compound 18] | % | 53.8 |
| Clc1ccc(C2CCc3cn[nH]c3-c3sc(-c4ccncc4)cc32)cc1 (stereo not drawn) [Compound 6] | % | 70.7 |
| COC(=O)[C@@H]1C(=O)c2sc(-c3ccncc3)cc2[C@H]1c1ccc(Cl)cc1 (relative stereo) [Compound 29] | % | 20.9 |
| CC1(C)C(=O)c2sc(-c3ccncc3)cc2C1c1ccc(Cl)cc1 (stereo not drawn) [Compound 147] | % | 9.91 |
| COc1cc(C2CC(=O)c3sc(N4CCOCC4)cc32)ccc1Cl (stereo not drawn) [Compound 158] | % | 100 |
| Clc1ccc(C2Cc3cn[nH]c3-c3sc(-c4ccncc4)cc32)cc1 (stereo not drawn) [Compound 12] | % | 69 |
| O=C1CCCC(O)(c2ccc(Cl)cc2)c2cc(-c3ccncc3)sc21 (stereo not drawn) [Compound 15] | % | 26.4 |
| CC1(C)C(=O)c2sc(N3CCOCC3)cc2C1(C)c1ccc(Cl)cc1 (racemic) [Compound 118] | % | 54.6 |
| CC1(C)NC(=O)c2sc(-c3ccncc3)cc2C1c1ccc(Cl)cc1 (stereo not drawn) [Compound 191] | % | 30.3 |
| O=C1NCC(c2ccc(Cl)c(Cl)c2)c2cc(N3CCOCC3)sc21 (stereo not drawn) [Compound 176] | % | 108 |
| O=C1N[C@@H](C(=O)NCCO)[C@H](c2ccc(Cl)cc2)c2cc(N3CCOCC3)sc21 [Compound 153] | % | 39.8 |

----------
Target: PI3Kgamma (Homo sapiens, UniProt P48736)
Construct: His (N); host or cells: SF9 insect cells (baculovirus)
Sequence (P48736 whole entry): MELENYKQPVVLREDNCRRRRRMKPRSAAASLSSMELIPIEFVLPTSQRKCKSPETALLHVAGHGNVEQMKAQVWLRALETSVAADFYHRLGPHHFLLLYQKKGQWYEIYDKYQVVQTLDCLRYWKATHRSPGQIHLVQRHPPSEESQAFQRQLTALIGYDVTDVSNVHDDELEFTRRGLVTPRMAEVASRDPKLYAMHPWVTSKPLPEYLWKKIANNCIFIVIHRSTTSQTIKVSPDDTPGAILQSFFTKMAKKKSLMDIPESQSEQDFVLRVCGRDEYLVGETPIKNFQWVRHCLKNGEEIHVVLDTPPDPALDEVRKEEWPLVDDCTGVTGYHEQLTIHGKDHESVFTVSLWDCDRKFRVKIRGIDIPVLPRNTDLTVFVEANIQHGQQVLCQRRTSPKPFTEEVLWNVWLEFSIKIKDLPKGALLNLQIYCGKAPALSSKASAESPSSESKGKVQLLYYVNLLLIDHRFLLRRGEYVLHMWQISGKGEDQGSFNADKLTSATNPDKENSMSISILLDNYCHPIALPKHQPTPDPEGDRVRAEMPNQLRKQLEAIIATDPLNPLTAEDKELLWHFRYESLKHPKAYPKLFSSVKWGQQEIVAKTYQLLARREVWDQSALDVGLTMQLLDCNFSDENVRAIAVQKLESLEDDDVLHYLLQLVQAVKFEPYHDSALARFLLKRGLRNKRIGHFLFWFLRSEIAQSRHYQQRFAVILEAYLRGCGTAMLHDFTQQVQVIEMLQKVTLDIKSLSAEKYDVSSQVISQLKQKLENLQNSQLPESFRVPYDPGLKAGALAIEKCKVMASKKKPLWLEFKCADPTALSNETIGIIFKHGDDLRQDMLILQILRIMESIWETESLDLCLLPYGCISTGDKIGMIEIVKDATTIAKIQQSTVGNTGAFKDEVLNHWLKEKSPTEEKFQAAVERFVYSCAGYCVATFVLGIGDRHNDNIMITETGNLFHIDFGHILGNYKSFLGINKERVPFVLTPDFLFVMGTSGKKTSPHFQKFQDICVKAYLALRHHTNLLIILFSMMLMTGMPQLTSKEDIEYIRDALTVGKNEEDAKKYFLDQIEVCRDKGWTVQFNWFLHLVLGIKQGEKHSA
Assay: Human PI3K gamma enzyme assay (HTRF, as for PI3K alpha)
Type: biochemical
Details: read-out: PI3Kgamma % inh

| compound | unitInfo | inhibition at 1.11 µM |
| --- | --- | --- |
| O=S1(=O)NCC(O)(c2ccc(Cl)cc2)c2cc(-c3ccncc3)sc21 (racemic) | % | 11.7 |
| O=C1N[C@@H](C(=O)NCCO)[C@H](c2ccc(Cl)cc2)c2cc(N3CCOCC3)sc21 | % | 9.08 |
| Clc1ccc(C2CCc3cn[nH]c3-c3sc(-c4ccncc4)cc32)cc1 (centres unmarked) | % | 14 |
| Cc1cc(C2CNC(=O)c3sc(N4CCOCC4)c(C#N)c32)ccc1Cl (centres unmarked) | % | 35.8 |
| O=C1NCCC(c2ccc(Cl)cc2)c2nc(N3CCOCC3)sc21 (centres unmarked) | % | 28.7 |

----------
Molecular target: PI3Kbeta (Homo sapiens)
Construct: His (N); host or cells: SF9 insect cells (baculovirus)
Sequence (P42338 whole entry): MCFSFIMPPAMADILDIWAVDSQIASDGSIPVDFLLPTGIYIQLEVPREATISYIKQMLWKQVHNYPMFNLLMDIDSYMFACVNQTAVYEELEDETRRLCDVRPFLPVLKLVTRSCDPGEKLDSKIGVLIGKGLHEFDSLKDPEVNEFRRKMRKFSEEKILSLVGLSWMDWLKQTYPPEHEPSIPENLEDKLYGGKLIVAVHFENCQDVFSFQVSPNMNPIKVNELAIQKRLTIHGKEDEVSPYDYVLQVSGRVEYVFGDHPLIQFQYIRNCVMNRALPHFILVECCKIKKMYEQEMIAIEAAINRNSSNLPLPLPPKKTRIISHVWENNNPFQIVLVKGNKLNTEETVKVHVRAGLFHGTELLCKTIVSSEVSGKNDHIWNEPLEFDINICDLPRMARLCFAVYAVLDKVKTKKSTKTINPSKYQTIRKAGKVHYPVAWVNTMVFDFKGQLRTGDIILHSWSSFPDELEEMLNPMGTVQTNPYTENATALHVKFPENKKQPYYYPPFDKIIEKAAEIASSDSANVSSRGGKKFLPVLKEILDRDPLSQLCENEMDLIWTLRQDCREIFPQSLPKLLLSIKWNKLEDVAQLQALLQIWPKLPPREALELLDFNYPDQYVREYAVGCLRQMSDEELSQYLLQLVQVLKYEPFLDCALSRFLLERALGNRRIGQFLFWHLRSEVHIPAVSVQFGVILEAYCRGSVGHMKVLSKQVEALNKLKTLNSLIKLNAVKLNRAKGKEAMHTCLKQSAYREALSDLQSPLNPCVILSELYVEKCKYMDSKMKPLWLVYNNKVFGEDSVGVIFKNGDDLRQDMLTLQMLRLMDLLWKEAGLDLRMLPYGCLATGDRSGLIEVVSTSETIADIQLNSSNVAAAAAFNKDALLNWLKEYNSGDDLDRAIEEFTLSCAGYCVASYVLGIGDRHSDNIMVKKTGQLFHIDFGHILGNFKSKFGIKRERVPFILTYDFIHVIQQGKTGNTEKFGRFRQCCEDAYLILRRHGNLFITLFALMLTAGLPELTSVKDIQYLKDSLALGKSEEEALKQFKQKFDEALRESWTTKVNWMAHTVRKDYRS
Sequence (P27986 whole entry partner): as the sequence (P27986 whole entry partner) above
Assay: Human PI3K beta enzyme assay (HTRF, as for PI3K alpha)
Format: biochemical
Conditions: at 1.11 μM; read-out: PI3Kbeta % inh

| compound | inhibition at 1.11 µM [%] |
| --- | --- |
| O=C1NCCCC(c2ccc(Cl)cc2)c2cc(-c3ccncc3)sc21 (stereo not drawn) | 83.3 |
| Clc1ccc(C2Cc3cn[nH]c3-c3sc(-c4ccncc4)cc32)cc1 (stereo not drawn) | 73.2 |
| O=C1NCCC(c2ccc(Cl)cc2)c2cc(-c3ccncc3)sc21 (racemic) | 102 |
| O=C1CC(c2ccc(Cl)cc2)c2cc(N3CCOCC3)sc21 (stereo not drawn) | 105 |
| N#Cc1c(N2CCOCC2)sc2c1C(c1ccc(Cl)cc1)CNC2=O (stereo not drawn) | 108 |
| O/N=C1/CCC(c2ccc(Cl)cc2)c2cc(-c3ccncc3)sc21 (stereo not drawn) | 104 |
| CNC(=O)[C@@H]1NC(=O)c2sc(-c3ccncc3)cc2[C@H]1c1ccc(Cl)cc1 | 58.5 |
| CC1=CC(=O)Nc2sc(-c3ccncc3)cc2C1(C)c1ccc(Cl)cc1 (stereo not drawn) | 96.8 |
| C=CCC1(C(=O)O)NC(=O)c2sc(N3CCOCC3)cc2C1c1ccc(Cl)c(Cl)c1 (stereo not drawn) | 84.3 |
| NC(=O)[C@@H]1NC(=O)c2sc(N3CCOCC3)cc2[C@H]1c1ccc(Cl)c(Cl)c1 (relative stereo) | 107 |
| O=C1NCCC(c2ccc(Cl)c(Cl)c2)c2cc(N3CCOCC3)sc21 (stereo not drawn) | 106 |
| N#Cc1c(N2CCOCC2)sc2c1C(c1ccc(Cl)cc1)OC2=O (stereo not drawn) | 65.7 |
| CN1CCC(c2ccc(Cl)cc2)c2cc(N3CCOCC3)sc2C1=O (stereo not drawn) | 77 |
| O=C1NCCC(c2ccc(Cl)cc2)c2nc(N3CCOCC3)sc21 (stereo not drawn) | 97.4 |
| Cc1cc(-c2nc3c(s2)C(=O)NCC3c2ccc3ccccc3c2)ccn1 (stereo not drawn) | 107 |
| O=C1OC2(CCNC(=O)c3sc(N4CCOCC4)nc32)c2ccc(Cl)cc21 (stereo not drawn) | 49.3 |
| O=C1N[C@@H](C(=O)O)[C@H](c2ccc(Cl)c(Cl)c2)c2cc(N3CCOCC3)sc21 (relative stereo) | 72 |
| N#Cc1c(N2CCOCC2)sc2c1C(c1ccc(Cl)c(Cl)c1)NC2=O (stereo not drawn) | 104 |
